Tested on: pigweed (Amaranthus retroflexus)
ASSAY PROTOCOL: Test A preemergence
Type: in vivo
CONDITION INFO: Preemergence, 500 g ai/ha, visual injury approx. 10 d
# reported Pigweed plant response rating (0 to 100 scale, 0 is no effect, 100 is complete control); entries follow
Please state the value as a number alone, without comment.

Solved cases below.
O=C1NCC(c2ccc(Br)cc2)C1C(=O)Nc1cccc(F)c1 (stereo not drawn) : 20
O=C1NCC(c2ccc(Br)cc2)C1C(=O)Nc1ccccc1Cl (stereo not drawn) : 30

With those in mind, consider the next compound.
Give recorded Pigweed plant response rating (0 to 100 scale, 0 is no effect, 100 is complete control). CCc1cccc(C2CN(C)C(=O)C2C(=O)Nc2ccccc2F)c1 (stereo not drawn) 40

----------
Test system: barnyardgrass (Echinochloa crus-galli)
ASSAY PROTOCOL: Test A postemergence
Assay type: in vivo
CONDITION INFO: Echinochloa crus-galli, post-emergence, 240 h, 125 g ai/ha, postemergence, visual injury rating after approximately 10 d; read-out: Barnyardgrass plant response rating (0 to 100 scale, 0 no effect, 100 complete control)
Entries whose pest or weed control at 125 g/ha is below 60% take true (1); entries at or above 60% take false (0).

A selection of reference data follows.
COc1ccc([C@H]2CN(C)C(=O)[C@@H]2C(=O)Nc2ccccc2SC)cc1OC : true (1)
COc1cc([C@H]2CN(C)C(=O)[C@@H]2C(=O)Nc2cccc(F)c2F)cc(C(F)(F)F)c1 : false (0)
CN1C[C@H](c2cccc(F)c2)[C@@H](C(=O)Nc2ccccc2C(F)(F)F)C1=O : false (0)

Bench note: check whether COc1cc(C(F)(F)F)ccc1[C@H]1CN(C)C(=O)[C@@H]1C(=O)Nc1ccccc1SC shows pest or weed control at 125 g/ha below 60% true (1)

----------
Tested on: giant foxtail (Setaria faberii)
ASSAY PROTOCOL: Test A postemergence
Assay type: in vivo
CONDITION INFO: Setaria faberi, post-emergence, 240 h, 125 g ai/ha, postemergence; visual injury on 0 to 100 scale (0 no effect, 100 complete control), approx. 10 d; read-out: Foxtail, Giant plant response rating
QUANTITY NAME: pest or weed control at 125 g/ha (%)
# value in %; strip the unit string

Solved cases below.
CC(C)Oc1ccc([C@H]2CNC(=O)[C@@H]2C(=O)Nc2cccc(F)c2F)cc1 : 20
CN1CC(c2cccc(O)c2)C(C(=O)Nc2cccc(F)c2F)C1=O (stereo not shown) : 0
CN1C[C@H](c2cc(C(F)F)cs2)[C@@H](C(=O)Nc2cccc(F)c2C#N)C1=O : 90

Name the recorded pest or weed control at 125 g/ha of CSc1ccccc1NC(=O)[C@H]1C(=O)NC[C@@H]1c1ccc(C)c(C)c1 , assay system giant foxtail (Setaria faberii). 0

Name the recorded pest or weed control at 125 g/ha of CC(C)Oc1ccc([C@H]2CNC(=O)[C@@H]2C(=O)Nc2ccccc2F)cc1 , assay system giant foxtail (Setaria faberii). 0

Name the recorded pest or weed control at 125 g/ha of O=C1NC[C@H](c2ccc(F)c(OC(F)(F)C(F)F)c2)[C@H]1C(=O)Nc1ccccc1F , assay system giant foxtail (Setaria faberii). 90

Name the recorded pest or weed control at 125 g/ha of Cc1ccc([C@H]2CNC(=O)[C@@H]2C(=O)Nc2ccccc2F)cc1C , assay system giant foxtail (Setaria faberii). 30
